tested on: 935938-334-R-J1-PDC complex spheroid viability; assay: Anticancer human tumor 935938-334-R-J1-PDC patient-derived small intestine adenocarcinoma cell line growth inhibition [POLQ]; settings: second compound 1 µM; first compound 0.01 µM; active compounds read low
Quick reference: viability, T/C of the listed items.
Please state the figure in %; there is no need to write the unit.

| compound | viability, T/C (%) |
| --- | --- |
| CCc1c2c(nc3ccc(O)cc13)-c1cc3c(c(=O)n1C2)COC(=O)[C@]3(O)CC + COC1C(OC(N)=O)C(O)C(Oc2ccc3c(O)c(NC(=O)c4ccc(O)c(CC=C(C)C)c4)c(=O)oc3c2C)OC1(C)C | 76.8 |
| Cn1ncnc1[C@H]1c2n[nH]c(=O)c3cc(F)cc(c23)N[C@@H]1c1ccc(F)cc1 + Cc1cccc(N(C)C(=O)C2C(O)CCN2c2nc(C)cc(C(F)(F)F)c2C#N)c1 | 82.1 |

Record summary for C=CCn1c(=O)c2cnc(Nc3ccc(N4CCN(C)CC4)cc3)nc2n1-c1cccc(C(C)(C)O)n1 + Cc1cccc(N(C)C(=O)C2C(O)CCN2c2nc(C)cc(C(F)(F)F)c2C#N)c1 : reported viability, T/C = 98.6

Looking up C=CCn1c(=O)c2cnc(Nc3ccc(N4CCN(C)CC4)cc3)nc2n1-c1cccc(C(C)(C)O)n1 + COC1C(OC(N)=O)C(O)C(Oc2ccc3c(O)c(NC(=O)c4ccc(O)c(CC=C(C)C)c4)c(=O)oc3c2C)OC1(C)C , I found its viability, T/C recorded as 112

---

# viability, T/C annotations
tested on: 935938-334-R-J1-PDC complex spheroid viability; assay: Anticancer human tumor 935938-334-R-J1-PDC cell line growth inhibition [POLQ]; conditions: second compound 0.1 µM; first compound 0.1 µM; active compounds read low;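 further: spheroids exposed to drugs for seven days before viability read; 100% = DMSO vehicle control wells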
State just the number; it will be interpreted in %.

// solved cases for viability, T/C follow
| molecule | viability, T/C / % |
| --- | --- |
| C=CC(=O)N1CCN(c2nc(=O)n(-c3c(C)ccnc3C(C)C)c3nc(-c4c(O)cccc4F)c(F)cc23)C(C)C1 (stereo not given) + COC1C(OC(N)=O)C(O)C(Oc2ccc3c(O)c(NC(=O)c4ccc(O)c(CC=C(C)C)c4)c(=O)oc3c2C)OC1(C)C | 110 |
| Cn1ncnc1[C@H]1c2n[nH]c(=O)c3cc(F)cc(c23)N[C@@H]1c1ccc(F)cc1 + COC1C(OC(N)=O)C(O)C(Oc2ccc3c(O)c(NC(=O)c4ccc(O)c(CC=C(C)C)c4)c(=O)oc3c2C)OC1(C)C | 83.5 |
| COc1cccc2c1C(=O)c1c(O)c3c(c(O)c1C2=O)CC(O)(C(=O)CO)CC3OC1CC(N)C(O)C(C)O1 (stereo not given) + Nc1ccc(C#CCN(C(=O)Cc2ncc(C(F)(F)F)cc2C(F)(F)F)c2ccc(F)cc2)nn1 | 45.5 |

Form field viability, T/C for item CCc1cc2c(N3CCc4c(cc(Cn5ccnc5)cc4-c4cn(C)nc4C(F)(F)F)C3=O)cc(C)nc2c(OC)n1 + Nc1ccc(C#CCN(C(=O)Cc2ncc(C(F)(F)F)cc2C(F)(F)F)c2ccc(F)cc2)nn1 on 935938-334-R-J1-PDC complex spheroid viability: 66.2

Measured viability, T/C (935938-334-R-J1-PDC complex spheroid viability), entry CCc1cc2c(N3CCc4c(cc(Cn5ccnc5)cc4-c4cn(C)nc4C(F)(F)F)C3=O)ccnc2c(OC)n1 + COC1C(OC(N)=O)C(O)C(Oc2ccc3c(O)c(NC(=O)c4ccc(O)c(CC=C(C)C)c4)c(=O)oc3c2C)OC1(C)C : 77.2
